# System: CRL-7250
# assay_remarks: Cytotoxic Profiling of Annotated Libraries Using Quantitative High-Throughput Screening (AID 1296008); note: nearly all actives have a fitted effect of over 60% in size
# measurement_setup: Five cell lines viability, CellTiter-Glo ATP luminescence, 48-72 h
Inconclusive results are not listed. Active and inactive are the calls of the source. Calls come from the whole dose curve; as a rule, active = well fitted inhibition curve with a large enough effect; inconclusive = small, poorly fitted or top-dose-only effect; inactive = flat fitted curve, though single readings scatter.
Form entry, call: pick from Y (active), N (inactive)

Worked examples, 3 compounds total:
(Q) Please share the test call associated with `C[C@H](NC(=O)Cc1cc(F)cc(F)c1)C(=O)N[C@@H]1N=C(c2ccccc2)c2ccccc2N(C)C1=O` .
(A) N

(Q) Please share the test call associated with COC(=O)C12C(=O)C(C)(O)C(=O)C1(C)C(C)=CC1C34CCC(OC3=O)C(C)(CO)C4CCC12C (configuration not stated) .
(A) N

(Q) Please share the test call associated with COC1CC(OC2CCC3(C)C(CCC4C3CCC3(C)C(C5=CC(=O)OC5)C(OC(C)=O)CC43O)C2)OC(C)C1OC1OC(CO)C(O)C(O)C1O (configuration not stated) .
(A) Y

More entries:
(Q) Please share the test call associated with COC(=O)C1(C)CCC(O)C2(C)c3c(O)cc(C(C)C)cc3C(O)C(OC(C)=O)C12 (configuration not stated) .
(A) N

(Q) Please share the test call associated with `OCCCCC#Cc1cncc(OC[C@@H]2CCN2)c1` .
(A) N

(Q) Please share the test call associated with `C[C@@]1(C(=O)O)CC[C@]2(C)CC[C@]3(C)C4=CC(=O)c5cc(O)c(O)cc5[C@]4(C)CC[C@@]3(C)[C@@H]2C1` .
(A) N

(Q) Please share the test call associated with COC1C(O)C(C)OC(OC2C(CO)O[C@@H](O[C@@H]3CC4CCC5C(CC[C@]6(C)[C@@H](C7=CC(=O)OC7)CC[C@]56O)[C@@]4(C)[C@H](O)C3)C(O)C2O)C1O (some centres not stated) .
(A) Y

(Q) Please share the test call associated with COCC1OC(=O)c2coc3c2C1(C)C1=C(C3=O)C2CCC(=O)C2(C)CC1O (configuration not stated) .
(A) N

(Q) Please share the test call associated with CO[C@@H]1[C@H](O)[C@@H](O[C@@H]2C[C@H]3CC[C@@H]4C(CC[C@]5(C)[C@@H](C6=CC(=O)OC6)CC[C@]45O)[C@@]3(C)[C@H](O)C2)O[C@H](C)[C@@H]1O[C@@H]1O[C@H](CO)[C@@H](O)[C@H](O)[C@H]1O (some centres not stated) .
(A) Y

(Q) Please share the test call associated with COC1CC(=O)C23C(=O)NC(CC(C)C)C2C(C)=C(C)C(OO)C3/C=C(\C)CCC(O)C1O (configuration not stated) .
(A) N

(Q) Please share the test call associated with CC(CCc1ccc(O)cc1)O[C@@H]1O[C@H](CO[C@H]2OC[C@](O)(CO)[C@H]2O)[C@@H](O)[C@H](O)[C@H]1O (some centres not stated) .
(A) N

(Q) Please share the test call associated with `COc1cc(CCNCc2ccccc2O)c(OC)cc1C#N` .
(A) N

(Q) Please share the test call associated with CC12CCC3C(CCC4(O)CC(O)CCC34C=O)C1(O)CCC2C1=CC(=O)OC1 (configuration not stated) .
(A) Y

(Q) Please share the test call associated with `CN1C(=O)N(c2ccc(C#N)c(C(F)(F)F)c2)C(=O)[C@]1(CO)c1ccccc1` .
(A) N

(Q) Please share the test call associated with `O=C(N1CCOCC1)N1CCN(c2ccc(Cl)cc2)CC1` .
(A) N

(Q) Please share the test call associated with C[C@H]1O[C@@H](O[C@H]2C[C@@H](O)[C@]3(CO)C4C(CC[C@]3(O)C2)[C@@]2(O)CC[C@H](C3=CC(=O)OC3)[C@@]2(C)C[C@H]4O)[C@@H](O)[C@@H](O)[C@H]1O (some centres not stated) .
(A) Y

(Q) Please share the test call associated with CC1=C2C(=O)C3[C@@H](CC=C4C[C@@H](O)CC[C@@]43C)[C@@H]2CC[C@]12O[C@@H]1C[C@H](C)CN[C@H]1[C@H]2C (some centres not stated) .
(A) N

(Q) Please share the test call associated with CC(C)(C)c1cc(C(C)(C)C)c2c(c1)C(O)(C(F)(F)F)C(=O)O2 (configuration not stated) .
(A) N

(Q) Please share the test call associated with `COC1=CC(=O)O[C@@H](CCc2ccccc2)C1` .
(A) N

Just for reference, PubChem BioAssay (NCATS) is where these values come from.
